- assay_system: T1, His-tagged human BCMA (Acro Biosystems, Cat. #BCA-H522y) (human, UniProt Q02223 1-54)
- T1 construct: also called huBCMA; P1; not shown: His tag
- T1 sequence: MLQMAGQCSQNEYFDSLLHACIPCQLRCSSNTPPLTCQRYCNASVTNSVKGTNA
- test_name: ELISA, IgG purified from hybridoma supernatant, coated His-tagged antigen
Would you mind telling me the reported EC50 of each entry?
Numbers only, in µg/mL.

Illustrative cases are given below, each with its answer.
| binder | EC50 / µg/mL |
| --- | --- |
| 552-LN2-E6 (antibody produced by the hybridoma) (antibody, V domains shown, Mouse antibody from B cell hybridoma (culture supernatant or IgG purified from it)) VH: QIQLVQSGPELKKPGETVKISCMASGYTFTDYSVRWVKQAPGKGLEWMGWINTETGEPTYADDFKGRFAFSLETSASTAYLQINNLKNEDTATYFCAISYYYALDYWGHGTSVTVSS VL: DIVLTQSPASLTVSLGQRATISCRASKSVSTSVYSFLHWYQQKPGQPPKLLIYLASNLESGVPARFSGSGSGTDFTLNIHPVEEEDAATYYCQHSRELPRTFGGGTKLEIK | 0.0505 |
| 552-LN2-F8 (antibody produced by the hybridoma) (antibody, V domains shown, Mouse antibody from B cell hybridoma (culture supernatant or IgG purified from it)) VH: QIQLVQSGPELKKPGETVKISCKASGYTFTDYTMYWVKQAPGKGLKWMGWINTETGEPTYADDFKGRFVFSLETSANTAYLQINNLKNEDTATYFCAISYYYGMDYWGQGTSVTVTS VL: DIILTQSPASLAVSLGQRATITCRASKSVSTSGYNFVYWYQQKPGQPPKLLIYLASNLESGVPARFSGSGSGTDFTLNIHPVEEEDAATYYCQHSRELPRTFGGGTKLEIK | 0.0585 |
| 539-SP2-H3 (antibody produced by the hybridoma) (antibody, V domains shown, Mouse antibody from B cell hybridoma (culture supernatant or IgG purified from it)) VH: EVQLQQSGPELVKPGASVKMSCKASGYTFTSYVIHWVKQKPGQGLEWIGYVLPYNDVIKYNEKFKGKATLTSDKSSSTAYMDLSSLTSEDSAVYYCARWGDFDEGIWFPYWGQGTLVTVSA VL: DVLMTQTPLSLPVSLGDHASVSCRSSQSIVHTDGNTYLEWYLQKPGQSPKLLIYKVSNRFSGVPDRFSGSGSGTDFTLKISRVEAEDLGVYYCFQGSHVPWTFGGGTKLEIK | 0.152 |
| 552-LN1-F4 (antibody produced by the hybridoma) (antibody, V domains shown, Mouse antibody from B cell hybridoma (culture supernatant or IgG purified from it)) VH: QIQLVQSGPELKKPGETVKISCMASGYTFTDYSVRWVKQAPGKGLEWMGWINTETGEPTYAHDFKGRFAFSLETSASTAYLQINNLKDEDTSTYFCAISYYYALDYWGHGTSVTVSS VL: DIVLTQSPASLTVSLGQRATISCRASKSVSTSGYNFLHWYQQKPGQPPKLLIYLASNLESGAPARFSGSGSGTDFTLNIHPVEEEDAATYYCQHSRELPRTFGGGTKLEIK | 0.037 |
| 552-LN1-E9 (antibody produced by the hybridoma) (antibody, V domains shown, Mouse antibody from B cell hybridoma (culture supernatant or IgG purified from it)) VH: QIQLVQSGPELKKPGETVKISCKASGYTFTDYSIYWVKQAPGKGLKWMGWINTETGEPTYADDFKGRFAFSLETSASSAYLQINTLKNEDTATYFCSISYYYAMDYWGQGTSVTVSS VL: DIVLTQSPASLAVSLGQRATISCRASKSVSTSGYSFLHWYQQKPGQPPKLLIYFASNLESGVPARFSGSGSGTDFTLNIHPVEEEDAATYYCQHSRELPRTFGGGTKLEIK | 0.071 |

Give me EC50 for each of these binders, listed below.
1. 538-SP5-B10 (antibody produced by the hybridoma) (antibody, V domains shown, Mouse antibody from B cell hybridoma (culture supernatant or IgG purified from it)) VH: EVQLQQSGPELVKPGASVKMSCKASGYTFTSYVMHWVKQKPGRGLEWIAYILPFNDVTKYNEKFKGKATLTSDKSSNTAYMELSSLTSEDSAVYYCARWEWDDGYFDYWGQGTTLTVSS VL: DAVMTQTPLSLPVSLGDQASISCRSSQSLENSNGNTYLNWYLQKPGQSPQLLIYRVSNRFSGVLDRFSGSGSGTDFTLKISRVEAEDLGVYFCLQVSHVPFTFGAGTKLELK
2. 539-SP1-C8 (antibody produced by the hybridoma) (antibody, V domains shown, Mouse antibody from B cell hybridoma (culture supernatant or IgG purified from it)) VH: EVQLQQSGPELVKPGSSVKMSCKASGYTFTNYVMHWVKQKPGQGLEWIGYILPYNDGTKYNEKFKGKATLTSDKSSSTAYMEFSVLTSEDSAVYYCARYDYEGSFDYWGQGTALTVSS VL: DIQMTQTTSSLSASLGDRVTISCRASQDISNYLNWYQQKPDGTVKLLMCYTSRLHSGVPSRFSGSGSGTDFSLTISNLEQEDIATYFCQQGNTFPPTFGGGTKLEIK
3. 539-SP7-F4 (antibody produced by the hybridoma) (antibody, V domains shown, Mouse antibody from B cell hybridoma (culture supernatant or IgG purified from it)) VH: EVQLQQSGPELVKPGASMKISCKASGYSFTGYIMNWVKQSHGKNLEWIGLINPYNGDSIYNQKFKGKATLTVDKSSSTAYMELFSLTSEDSTVYYCAAGEEFAYWGQGTLVTVSA VL: DIQMTQTSSSLSASLGDRVTISCRASQDISIYLNWFQQKPDGTVKLLIYFTSRLHPGVPSRFSASGSGTDYSLTISHLEHEDIATYFCQQGNTLPRTFGGGTKVELK

Ans:
0.0358
0.0299
0.0182

Q: Can you share its EC50? I mean this binder: 539-SP5-D7 (antibody produced by the hybridoma) (antibody, V domains shown, Mouse antibody from B cell hybridoma (culture supernatant or IgG purified from it)) VH: EVMLVDSGGNLVKPGGSLKLSCAASGFTFSNYVISWVRQTPEKRLEWVATISTVGTNTYYPDSVRGRFTISRDNAENTLYLQMSSLRSEDTAIYYCSRHKYGYDDPSYAMDYWGQGTSVTVSS VL: QLVLTQSSSASFSLGASAKLTCTLSSQHSTYTIEWYQQQPLKPPKYVMELKKDGSHSTGDGIPDRFSGSSSGADRYLSISNIQAEDEAIYICGVGDTVKEQFVYVFGGGTKVTVL
Ans: 0.0335
